- TARGET: T1, EsCas13d, nuclease-dead (Eubacterium siraeum, UniProt B0MS50, R295A;H300A;R849A;H854A)
- T1 sequence: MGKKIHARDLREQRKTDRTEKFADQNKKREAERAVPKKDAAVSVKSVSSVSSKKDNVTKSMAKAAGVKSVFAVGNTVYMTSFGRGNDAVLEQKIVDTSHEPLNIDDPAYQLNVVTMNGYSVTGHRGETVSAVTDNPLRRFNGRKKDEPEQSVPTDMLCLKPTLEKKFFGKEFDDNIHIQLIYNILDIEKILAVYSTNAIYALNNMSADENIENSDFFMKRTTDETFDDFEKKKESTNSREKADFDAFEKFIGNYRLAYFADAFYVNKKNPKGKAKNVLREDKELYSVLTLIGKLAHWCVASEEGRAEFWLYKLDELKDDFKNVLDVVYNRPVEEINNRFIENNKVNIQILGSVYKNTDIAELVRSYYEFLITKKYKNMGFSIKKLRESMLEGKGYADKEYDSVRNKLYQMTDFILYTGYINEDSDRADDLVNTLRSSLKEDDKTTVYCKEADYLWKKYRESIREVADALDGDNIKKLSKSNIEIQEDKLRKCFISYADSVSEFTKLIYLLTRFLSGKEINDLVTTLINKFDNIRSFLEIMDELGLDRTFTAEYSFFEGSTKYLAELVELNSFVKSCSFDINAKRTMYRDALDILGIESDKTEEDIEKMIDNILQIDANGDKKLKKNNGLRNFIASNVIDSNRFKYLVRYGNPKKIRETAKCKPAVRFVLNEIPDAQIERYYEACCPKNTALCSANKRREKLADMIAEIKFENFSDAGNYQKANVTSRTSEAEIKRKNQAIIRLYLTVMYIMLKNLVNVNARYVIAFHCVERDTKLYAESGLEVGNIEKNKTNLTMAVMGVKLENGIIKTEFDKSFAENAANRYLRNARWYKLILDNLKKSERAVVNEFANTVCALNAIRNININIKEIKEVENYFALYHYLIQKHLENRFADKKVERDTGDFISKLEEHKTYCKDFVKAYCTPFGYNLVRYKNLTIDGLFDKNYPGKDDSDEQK
- ASSAY_INFO: crRNA (strand 1, pre-loaded); Mg2+; 40 mM Tris-HCl pH 7.5, 150 mM NaCl, 6 mM MgCl2, 1 mM DTT, 0.1% Tween-20, 0.2 mg/ml BSA; 25 C; 10 min per concentration, then washed
- APPLIED_CONDITIONS: tags: His6-TwinStrep-SUMO cleaved; N-terminal SNAP kept (SNAP-Surface 488); label: 3' end held by stalled T7 RNA polymerase
Measured Kd of individual entries

Field: example entries. Status: answers known.
BINDER	Kd
target 2 MT 5'PFS AGG 3'PFS CCU (mixed) RNA 1: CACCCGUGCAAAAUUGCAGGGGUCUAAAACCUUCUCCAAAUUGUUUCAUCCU RNA 2: GGGAAUGGAUCCACAUCUACGAAUUCAGGAGGAUGAAACAAUUUGGAGAAGCCUAGAUCGGAAGAGCACACGU	40 nM
target 2 MT 5'PFS GAA 3'PFS AAA (mixed) RNA 1: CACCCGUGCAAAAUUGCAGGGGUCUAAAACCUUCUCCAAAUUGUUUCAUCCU RNA 2: GGGAAUGGAUCCACAUCUACGAAUUCGAAAGGAUGAAACAAUUUGGAGAAGAAAAGAUCGGAAGAGCACACGU	5.7 nM

Prompt line: Tell me Kd reported for target 1 insG 3' of 4,insC 3' of 3 (mixed) RNA 1: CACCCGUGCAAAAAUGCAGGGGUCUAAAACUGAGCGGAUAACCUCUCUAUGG RNA 2: GGGAAUGGAUCCACAUCUACGAAUUCGUACCAUAGAGAGGUUAUCCGCGUCCACCGAGAUCGGAAGAGCACACGU
Response line: 13.4 nM

Prompt line: Name the recorded Kd of the binder listed here: target 2 MT 5'PFS UGU 3'PFS CCG (mixed) RNA 1: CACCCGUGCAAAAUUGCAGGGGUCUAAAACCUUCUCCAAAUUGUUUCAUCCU RNA 2: GGGAAUGGAUCCACAUCUACGAAUUCUGUAGGAUGAAACAAUUUGGAGAAGCCGAGAUCGGAAGAGCACACGU
Response line: 12.6 nM

Ref: paper PMC10786891
